All values here come from patent US20250074980A1.

- SYSTEM_UNDER_TEST: T1, His-tagged CEACAM1 (human, UniProt P13688 35-428)
- T1 construct: 45 kDa SPR analyte; also called CEACAM1-HIS; CEACAM1 analyte
- T1 sequence: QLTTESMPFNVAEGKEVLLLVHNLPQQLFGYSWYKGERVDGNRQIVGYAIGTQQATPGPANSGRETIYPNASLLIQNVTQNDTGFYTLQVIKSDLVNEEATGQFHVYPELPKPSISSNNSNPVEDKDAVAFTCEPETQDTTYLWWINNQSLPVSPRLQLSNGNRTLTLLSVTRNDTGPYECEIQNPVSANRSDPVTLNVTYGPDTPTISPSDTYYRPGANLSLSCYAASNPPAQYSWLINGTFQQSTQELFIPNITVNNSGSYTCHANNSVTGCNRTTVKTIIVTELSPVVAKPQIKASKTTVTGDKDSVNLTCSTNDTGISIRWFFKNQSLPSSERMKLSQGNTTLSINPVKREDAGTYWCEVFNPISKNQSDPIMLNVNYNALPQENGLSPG
- ASSAY_REMARKS: SPR single-cycle, supernatant IgG captured
Recorded kon for the following binders
# value in M⁻¹ s⁻¹; strip the unit string

1. CP09G03/Vκ8 S29A (antibody, IgG4, V domains shown, IgG4 (S241P), kappa) VH: EVQLLESGGGLVQPGGSLRLSCAASGFTFNAHAMSWVRQAPGKGLEWVATISSGGTYTYYPDSVKGRFTISRDNSKNTLYLQMNSLKAEDTAMYYCARHDFDYDAAWFAYWGQGTLVTVSS VL: EIVLTQSPATLSLSPGERATLSCRANSAVSYMYWYQQKPGQAPRPWIYLTSNRATGVPARFSGSGSGTDYTLTISSLEPEDFAVYYCQQWSSNPPTFGQGTKLEIK | 110000
2. VH1/CP08G09 (antibody, IgG4, V domains shown, IgG4 (S241P), kappa; also called Parent VH/CP08G09) VH: EVQLLESGGGLVQPGGSLRLSCAASGFIFSSHGMSWVRQAPGKGLEWVATISSGGTYTYYPDSVKGRFTISRDNSKNTLYLQMNSLKAEDTAMYYCARHDFDYDAAWFAYWGQGTLVTVSS VL: EIVLTQSPATLSLSPGERATLSCRANSAVSYMYWYQQKPGQAPRPWIYLTSNRATGVPARFSGSGSGTDYTLTISSLEPEDFAVYYCQQWTAFPPTFGQGTKLEIK | 470000
3. CP08B04/Vκ8 S29A (antibody, IgG4, V domains shown, IgG4 (S241P), kappa) VH: EVQLLESGGGLVQPGGSLRLSCAASGFIFSSHGMSWVRQAPGKGLEWVATISSGGTYTYYPDSVKGRFTISRDNSKNTLYLQMNSLKAEDTAMYYCARHDFDYFPAWFALWGQGTLVTVSS VL: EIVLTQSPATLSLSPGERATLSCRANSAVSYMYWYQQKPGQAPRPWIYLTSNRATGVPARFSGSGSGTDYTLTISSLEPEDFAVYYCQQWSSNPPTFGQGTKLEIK | 120000

Shifting focus to the binder that follows.
Tell me the measured kon of CP09C02/Vκ8 S29A (antibody, IgG4, V domains shown, IgG4 (S241P), kappa) VH: EVQLLESGGGLVQPGGSLRLSCAASEFTFSDHAMSWVRQAPGKGLEWVATISSGGTYTYYPDSVKGRFTISRDNSKNTLYLQMNSLKAEDTAMYYCARHGFDYDAAWFAYWGQGTLVTVSS VL: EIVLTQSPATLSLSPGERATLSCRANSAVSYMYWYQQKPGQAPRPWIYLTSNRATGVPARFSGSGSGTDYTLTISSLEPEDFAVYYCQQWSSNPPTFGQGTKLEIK , please. 200000
